// data source = patent US20070196376A1

- test-target: T1, Recombinant human IGF-I (insulin-like growth factor-I) (human, UniProt P05019 49-118)
- T1 construct: Bought; also called IGF1; IGF-1
- measurement-notes: limited antigen ELISA, supernatant 1:25
property-label: LA OD, IGF1 2 ng/ml (OD 450 nm)
Number in OD 450 nm, nothing else.

Request: Name the reported LA OD, IGF1 2 ng/ml value associated with the binder mAb 7.234.2 (antibody, V domains shown, also called 7.234.1; 7_234_1) VH: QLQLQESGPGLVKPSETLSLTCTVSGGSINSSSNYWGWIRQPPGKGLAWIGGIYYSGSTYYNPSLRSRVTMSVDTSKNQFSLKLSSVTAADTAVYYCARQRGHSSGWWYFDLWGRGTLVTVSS VL: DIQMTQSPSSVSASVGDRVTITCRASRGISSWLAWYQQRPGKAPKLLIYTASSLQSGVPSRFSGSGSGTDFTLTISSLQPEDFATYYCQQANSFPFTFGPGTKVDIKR
Result: 0.7
